Tested on: citrated normal human donor plasma
Assay: Clotting assay, activated partial thromboplastin time (aPTT)
Test Conditions: human plasma, compared to saline control
Method: The activated partial thromboplastin time (aPTT) was performed with citrated normal human donor plasma in duplicate on an Electra 1000C (Medical Laboratory Automation, Mount Vernon, N.Y.) according to recommended procedures using Actin FSL (Baxter Dade, Miami, Fla.) and 2.5 mM calcium to initiate clot formation, which was measured photometrically. Normal plasma aPTT values ranged from 27 to 39 sec. Data were calculated as 50% of prolongation as compared to the saline control.
[25] = 2'-5' internucleotide linkage (phosphodiester)
Measurement Kind: 50% Prolongation of Clotting (aPTT) (µg/mL)
Quick reminder: number only, in µg/mL, skip the unit.

Some solved entries appear below for comparison.
{"Substance": "SEQ ID NO 6: Phosphorothioate analog of SEQ ID NO 4, with nine 2'-5' linkages (antisense CUCTCGCACCCAUCTCTCTCCUUCT; all linkages phosphorothioate, nine 2'-5' linkages, further chemistry not given here)", "50% Prolongation of Clotting (aPTT) [µg/mL]": 98.3}
{"Substance": "SEQ ID NO 5: MBO with nine 2'-5'-linkages; 2'-5'-phosphodiester and 3'-5'-phosphorothioate linkages (antisense CUCTCGCACCCAUCTCTCTCCUUCT; nine 2'-5' phosphodiester linkages, other linkages 3'-5' phosphorothioate, further chemistry not given here)", "50% Prolongation of Clotting (aPTT) [µg/mL]": 115.0}
{"Substance": "SEQ ID NO 3: Phosphorothioate analog of SEQ ID NO 1 (antisense CUCTCGCACCCATCTCTCTCCUUCT; phosphorothioate, chemistry not fully specified)", "50% Prolongation of Clotting (aPTT) [µg/mL]": 58.0}

// query // map SEQ ID NO 2: MBO with three 2'-5'-linkages at each end; 2'-5'-phosphodiester and 3'-5'-phosphorothioate linkages (antisense CUCTCGCACCCATCTCTCTCCUUCT; linkages [25]3 s18 [25]3 (s phosphorothioate, o phosphodiester), sugars by position and methylation of C not given here) to recorded 50% Prolongation of Clotting (aPTT) (system: citrated normal human donor plasma)
// result 51.1

====

Tested on: RNA target strand SEQ ID NO 9 (25 base sequence from the initiation codon region of the HIV-1 gag mRNA)
Assay: Thermal melting study, duplex with RNA target strand
Type: binding
Test Conditions: duplex with RNA SEQ ID NO 9; 10 mM disodium hydrogen phosphate pH 7.5, 100 mM NaCl; 2.0 μM total strands
Experimental: Thermal denaturation studies were carried out by mixing MBOs with the DNA or RNA target strands in equimolar ratios in 10 mM disodium hydrogen phosphate, pH 7.5±0.1, 100 mM sodium chloride buffer, heated to 95° C. for 10 min, and allowed to come to room temperature slowly before being stored at 4° C. overnight. The final total concentration of the oligonucleotide strands was 2.0 μM. […]
[25] = 2'-5' internucleotide linkage (phosphodiester)
label 1 means recorded Tm RNA is 60 °C or above; label 0 means it is below 60 °C.

{"Substance": "SEQ ID NO 1: Phosphodiester MBO with three 2'-5'-linkages at each of the 5'- and 3'-ends, complementary to HIV-1 gag mRNA (antisense CUCTCGCACCCATCTCTCTCCUUCT; linkages [25]3 o18 [25]3 (s phosphorothioate, o phosphodiester), sugars by position and methylation of C not given here)", "Assigned Class": "label 1"}

// query Threshold query (Tm RNA >= 60 °C) on SEQ ID NO 2: MBO with three 2'-5'-linkages at each end; 2'-5'-phosphodiester and 3'-5'-phosphorothioate linkages (antisense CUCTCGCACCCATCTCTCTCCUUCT; linkages [25]3 s18 [25]3 (s phosphorothioate, o phosphodiester), sugars by position and methylation of C not given here)
// result label 1

// query Another: SEQ ID NO 6: Phosphorothioate analog of SEQ ID NO 4, with nine 2'-5' linkages (antisense CUCTCGCACCCAUCTCTCTCCUUCT; all linkages phosphorothioate, nine 2'-5' linkages, further chemistry not given here)
// result label 0

// query Now this one: SEQ ID NO 8: Control phosphorothioate oligonucleotide containing all 3'-5' linkages (CTCTCGCACCCATCTCTCTCCTTCT; all phosphorothioate, sugars by position and methylation of C not given here) [reference compound]
// result label 1
